Sourced from patent US11261209B2

# assay explanation: Solubility of oxazaphospholidine phosphoramidite monomers in solvent, visual examination
# Type: physicochemical
# condition summary: 24 h; MeCN; 0.013 mmol amidite in 0.13 mL; room temperature
assay endpoint: Soluble after: 24 h MeCN

# molecule, result
measured = [
    ("COc1ccc(C(OC[C@H]2O[C@@H](n3ccc(NC(C)=O)nc3=O)C[C@@H]2O[P@@]2O[C@H](c3ccccc3)[C@@H]3CCCN32)(c2ccccc2)c2ccc(OC)cc2)cc1", "No"),
    ("COc1ccc(C(OC[C@H]2O[C@@H](n3cnc4c(=O)[nH]c(/N=C/N(C)C)nc43)C[C@@H]2O[P@@]2O[C@H](c3ccccc3)[C@@H]3CCCN32)(c2ccccc2)c2ccc(OC)cc2)cc1", "No"),
    ("COc1ccc(C(OCC23COC(C(n4cnc5c(=O)[nH]c(N=CN(C)C)nc54)O2)C3OP2OC(c3ccccc3)C3CCCN32)(c2ccccc2)c2ccc(OC)cc2)cc1 [L-LNA G-DMF]", "No"),
    ("COc1ccc(C(OC[C@H]2O[C@@H](n3cc(C)c(=O)[nH]c3=O)C[C@@H]2O[P@]2O[C@@H](c3ccccc3)[C@H]3CCCN32)(c2ccccc2)c2ccc(OC)cc2)cc1", "No"),
    ("COc1ccc(C(OCC23COC(C(n4cnc5c(=O)[nH]c(N=CN(C)C)nc54)O2)C3OP2OC(c3ccccc3)C3CCCN32)(c2ccccc2)c2ccc(OC)cc2)cc1 [D-LNA G]", "Yes"),
]

---

# assay explanation: Solubility of oxazaphospholidine phosphoramidite monomers in solvent, visual examination
# Type: physicochemical
# condition summary: 0 h; MeCN; 0.013 mmol amidite in 0.13 mL; room temperature
assay endpoint: Soluble after: 0 h MeCN

# molecule, assay endpoint, result
records = [
    ("COc1ccc(C(OC[C@H]2O[C@@H](n3cnc4c(=O)[nH]c(/N=C/N(C)C)nc43)C[C@@H]2O[P@@]2O[C@H](c3ccccc3)[C@@H]3CCCN32)(c2ccccc2)c2ccc(OC)cc2)cc1 [L-DNA G]", "Soluble after: 0 h MeCN", "Yes"),
    ("COc1ccc(C(OC[C@@]23CO[C@@H]([C@H](n4cnc5c(=O)[nH]c(NC(=O)C(C)C)nc54)O2)[C@@H]3O[P@]2O[C@H](c3ccccc3)[C@@H]3CCCN32)(c2ccccc2)c2ccc(OC)cc2)cc1 [L-LNA-G-iBu]", "Soluble after: 0 h MeCN", "Yes"),
    ("COc1ccc(C(OC[C@H]2O[C@@H](n3ccc(NC(C)=O)nc3=O)C[C@@H]2O[P@@]2O[C@H](c3ccccc3)[C@@H]3CCCN32)(c2ccccc2)c2ccc(OC)cc2)cc1 [L-DNA C]", "Soluble after: 0 h MeCN", "Yes"),
]

---

# assay explanation: Solubility of oxazaphospholidine phosphoramidite monomers in solvent, visual examination
# Type: physicochemical
# condition summary: 0 h; MeCN + 2.5% pyridine; 0.013 mmol amidite in 0.13 mL; room temperature
assay endpoint: Soluble after: 0 h MeCN + 2.5% pyridine

# molecule, assay endpoint, result
rows = [
    ("COc1ccc(C(OCC23COC(C(n4cnc5c(=O)[nH]c(N=CN(C)C)nc54)O2)C3OP2OC(c3ccccc3)C3CCCN32)(c2ccccc2)c2ccc(OC)cc2)cc1 [L-LNA G-DMF]", "Soluble after: 0 h MeCN + 2.5% pyridine", "No"),
    ("COc1ccc(C(OCC23COC(C(n4cnc5c(=O)[nH]c(N=CN(C)C)nc54)O2)C3OP2OC(c3ccccc3)C3CCCN32)(c2ccccc2)c2ccc(OC)cc2)cc1 [D-LNA G]", "Soluble after: 0 h MeCN + 2.5% pyridine", "Yes"),
    ("COc1ccc(C(OC[C@H]2O[C@@H](n3cc(C)c(=O)[nH]c3=O)C[C@@H]2O[P@]2O[C@@H](c3ccccc3)[C@H]3CCCN32)(c2ccccc2)c2ccc(OC)cc2)cc1 [D-DNA T]", "Soluble after: 0 h MeCN + 2.5% pyridine", "Yes"),
]

---

# assay explanation: Solubility of oxazaphospholidine phosphoramidite monomers in solvent, visual examination
# Type: physicochemical
# condition summary: 24 h; MeCN + 2.5% pyridine; 0.013 mmol amidite in 0.13 mL; room temperature
assay endpoint: Soluble after: 24 h MeCN + 2.5% pyridine

# compound, result
rows = [
    ("COc1ccc(C(OCC23COC(C(n4cnc5c(=O)[nH]c(N=CN(C)C)nc54)O2)C3OP2OC(c3ccccc3)C3CCCN32)(c2ccccc2)c2ccc(OC)cc2)cc1 [D-LNA G]", "Yes"),
    ("COc1ccc(C(OC[C@@]23CO[C@@H]([C@H](n4cnc5c(=O)[nH]c(NC(=O)C(C)C)nc54)O2)[C@@H]3O[P@]2O[C@H](c3ccccc3)[C@@H]3CCCN32)(c2ccccc2)c2ccc(OC)cc2)cc1", "Yes"),
    ("COc1ccc(C(OCC23COC(C(n4cnc5c(NC(=O)c6ccccc6)ncnc54)O2)C3OP2OC(c3ccccc3)C3CCCN32)(c2ccccc2)c2ccc(OC)cc2)cc1 (stereo not drawn)", "Yes"),
]
